tested on: Lolium perenne (LOLPE); experiment: Glasshouse assay for herbicidal activity (pre- and post-emergence), percentage phytotoxicity; type: in vivo; details: Lolium perenne, post-emergence, 360 h, POST-emergence, rate 250 g/ha, visual score 15 DAA (100%=total damage, 0%=no damage); read-out: Post-emergence herbicidal activity (percentage phytotoxicity) LOLPE POST
MEASUREMENT KIND: pest or weed control at 250 g/ha

For the compound shown here, Cc1cc(-c2ccc(C#N)cn2)cc(C)c1C1C(=O)CC(CC(=O)NC(C)C)C1=O (centres unmarked) [Compound B320] , give the reported pest or weed control at 250 g/ha. 100%

// repeat for CCc1cc(-n2cc(Cl)cn2)cc(C)c1C1C(=O)CC(CC(=O)NCc2ccc(OC)cc2)C1=O (centres unmarked) [Compound B233] and report 70%

Repeat for the following compound: C#CCNC(=O)CC1CC(=O)C(c2c(C)cc(OCC(F)(F)F)cc2CC)C1=O (centres unmarked) [Compound B166] 100%

For CCNC(=O)CC1CC(=O)C(c2c(C)cc(-n3cc(Cl)cn3)cc2C)C1=O (centres unmarked) [Compound B307] then? 90%

Now the same for CCNC(=O)CC1CC(=O)C(c2c(C)cc(-c3ccc(Br)cn3)cc2C)C1=O (centres unmarked) [Compound B323] 100%

Now the same for CC#Cc1cc(C)c(C2C(=O)CC(CC(=O)NCc3ccc(C#N)cc3)C2=O)c(C)c1 (centres unmarked) [Compound B186] 90%

Moving on to COCCCNC(=O)CC1CC(=O)C(c2c(C)cc(-n3cc(Cl)cn3)cc2C)C1=O (centres unmarked) [Compound B310] 70%

Let's switch to this compound now.
Which measured pest or weed control at 250 g/ha value corresponds to COCC(C)NC(=O)CC1CC(=O)C(c2c(C)cc(-c3ncc(F)cn3)cc2C)C1=O (centres unmarked) [Compound B332] ? 100%
